# Target Or System: CypF (Homo sapiens (Human))
# Sequence (P30405 30-207): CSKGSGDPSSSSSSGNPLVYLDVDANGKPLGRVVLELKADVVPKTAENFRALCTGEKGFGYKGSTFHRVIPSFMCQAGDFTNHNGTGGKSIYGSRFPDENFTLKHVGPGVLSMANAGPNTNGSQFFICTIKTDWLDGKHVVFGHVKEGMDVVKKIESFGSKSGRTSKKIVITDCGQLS
# Measurement Notes: Inhibitor binding to cyclophilin proteins by SPR, CypF
# Run Conditions: 1:1 binding model
Starred links: 1 amine or outer side, 2 acyl side, 3 side chain; linkers in the order of their positions; H or OH if unused. Non-standard residues stand in square brackets, D forms with d. Residues, ends and D or L forms follow the SMILES beside them. NMeAbu(3S-Me,4-OC2H4Mor) = CN[C@H](C(=O)O)[C@H](C)COCCN1CCOCC1; X66 = C[C@H](COCC(=O)N1CCN(C)CC1)[C@@H](C(=O)[*:2])N(C)[*:1]; X67 = C[C@H](CCN1CCOC[C@@H]1C)[C@@H](C(=O)[*:2])N(C)[*:1]; X8 = COCCN1CCN(C[C@@H](C)[C@@H](C(=O)[*:2])N(C)[*:1])CC1; MeBmt = C/C=C/C[C@@H](C)[C@@H](O)[C@H](NC)C(=O)O; NMeL = CN[C@@H](CC(C)C)C(=O)O; NMeV = CN[C@H](C(=O)O)C(C)C; dNMeA = CN[C@H](C)C(=O)O; Abu = CC[C@H](N)C(=O)O
Observed Property: CypF Kd

Some compounds with known CypF Kd results, for comparison:
Compound	CypF Kd
C/C=C/C[C@@H](C)[C@@H](O)[C@H]1C(=O)N[C@@H](CC)C(=O)N(C)[C@H](C(C)C)C(=O)N(C)C([C@H](C)COC)C(=O)N[C@@H](C(C)C)C(=O)N(C)[C@@H](CC(C)C)C(=O)N[C@@H](C)C(=O)N[C@H](C)C(=O)N(C)[C@@H](CC(C)C)C(=O)N(C)[C@@H](CC(C)C)C(=O)N(C)[C@@H](C(C)C)C(=O)N1C (stereo in doubt)	8.2 nM
C/C=C/C[C@@H](C)[C@@H](O)[C@H]1C(=O)N[C@@H](CC)C(=O)N(C)[C@H](C)C(=O)N(C)[C@@H]([C@H](C)COCCN2CCOCC2)C(=O)N[C@@H](C(C)C)C(=O)N(C)[C@@H](CC(C)C)C(=O)N[C@@H](C)C(=O)N[C@H](C)C(=O)N(C)[C@@H](CC(C)C)C(=O)N(C)[C@@H](CC(C)C)C(=O)N(C)[C@@H](C(C)C)C(=O)N1C [Compound 2.8.1] (cyclo(A[dA][NMeL][NMeL][NMeV][MeBmt][Abu][dNMeA][NMeAbu(3S-Me,4-OC2H4Mor)]V[NMeL]))	0.7 nM
C/C=C/C[C@@H](C)[C@@H](O)[C@H]1C(=O)N[C@@H](CC)C(=O)N(C)[C@H](C)C(=O)N(C)[C@@H]([C@H](C)CN2CCN(CCOC)CC2)C(=O)N[C@@H](C(C)C)C(=O)N(C)[C@@H](CC(C)C)C(=O)N[C@@H](C)C(=O)N[C@H](C)C(=O)N(C)[C@@H](CC(C)C)C(=O)N(C)[C@@H](CC(C)C)C(=O)N(C)[C@@H](C(C)C)C(=O)N1C [Compound 2.5.10] (cyclo([MeBmt][Abu][dNMeA][X8]V[NMeL]A[dA][NMeL][NMeL][NMeV]))	0.9 nM
C/C=C/C[C@@H](C)[C@@H](O)[C@H]1C(=O)N[C@@H](CC)C(=O)N(C)[C@H](C)C(=O)N(C)[C@@H]([C@H](C)CCN2CCOC[C@@H]2C)C(=O)N[C@@H](C(C)C)C(=O)N(C)[C@@H](CC(C)C)C(=O)N[C@@H](C)C(=O)N[C@H](C)C(=O)N(C)[C@@H](CC(C)C)C(=O)N(C)[C@@H](CC(C)C)C(=O)N(C)[C@@H](C(C)C)C(=O)N1C [Compound 2.18.4] (cyclo(A[dA][NMeL][NMeL][NMeV][MeBmt][Abu][dNMeA][X67]V[NMeL]))	0.7 nM

Now turn to the next compound.
Under CypF (Homo sapiens (Human)): CypF Kd value of C/C=C/C[C@@H](C)[C@@H](O)[C@H]1C(=O)N[C@@H](CC)C(=O)N(C)[C@H](C)C(=O)N(C)[C@@H]([C@H](C)COCC(=O)N2CCN(C)CC2)C(=O)N[C@@H](C(C)C)C(=O)N(C)[C@@H](CC(C)C)C(=O)N[C@@H](C)C(=O)N[C@H](C)C(=O)N(C)[C@@H](CC(C)C)C(=O)N(C)[C@@H](CC(C)C)C(=O)N(C)[C@@H](C(C)C)C(=O)N1C [Compound 2.6.3] (cyclo(A[dA][NMeL][NMeL][NMeV][MeBmt][Abu][dNMeA][X66]V[NMeL])) ? 0.5 nM
